Molecular target: MAPK14 (human) (UniProt Q16539)
Sequence (Q16539 whole entry, looked up): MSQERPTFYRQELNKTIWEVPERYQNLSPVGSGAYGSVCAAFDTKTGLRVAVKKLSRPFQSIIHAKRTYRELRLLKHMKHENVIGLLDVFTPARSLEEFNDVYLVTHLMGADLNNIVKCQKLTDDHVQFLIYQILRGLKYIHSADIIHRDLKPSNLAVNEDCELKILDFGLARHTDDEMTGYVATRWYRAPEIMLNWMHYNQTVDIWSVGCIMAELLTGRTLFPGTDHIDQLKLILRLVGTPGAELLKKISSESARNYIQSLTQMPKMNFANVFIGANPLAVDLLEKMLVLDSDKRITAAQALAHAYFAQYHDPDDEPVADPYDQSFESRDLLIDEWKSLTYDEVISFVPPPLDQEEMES
Threshold 600 nM: IC50 strictly smaller gives Met, otherwise Not met.

Answered cases to consult:
molecule	tgt	class
CC[C@@H](C)Nc1ncc(-c2cn3ccnc3c(-c3ccccc3O)n2)s1	MAPK14 (human) (UniProt Q16539)	Not met
CC[C@@H](C)Nc1ncc(-c2cc(-c3ccc(F)cc3F)c3nccn3c2)s1	MAPK14 (human) (UniProt Q16539)	Met
Cc1ccccc1-c1cc(-c2cnc(NCCN(C)C)s2)cn2ccnc12	MAPK14 (human) (UniProt Q16539)	Not met
CC[C@@H](C)Nc1ncc(-c2cn3ccnc3c(-c3ccccc3F)n2)s1	MAPK14 (human) (UniProt Q16539)	Met
Cc1c(-c2cc(-c3ccccc3)c3nccn3c2)cnn1-c1ccccc1	MAPK14 (human) (UniProt Q16539)	Not met

Turning now to a further molecule:
Incoming: Criterion: IC50 strictly below 600 nM. Is it met by CC(C)Nc1cnc(-c2cc(-c3ccccc3)c3nc(CCO)cn3c2)s1 ?
Outgoing: Met

* * *

IC50, MAPK14 (human) (UniProt Q16539): measured values
One number for each entry, in nM.

Please state IC50 for every compound in the list that follows.
1. CCC(CC)Nc1ncc(-c2cc(-c3cccc(C#N)c3)c3nccn3c2)s1
2. CNC(=O)c1cn2cc(-c3cnc(NC(C)C)s3)cc(-c3ccccc3)c2n1
3. CCOC(=O)c1ccccc1-c1cc(-c2cnc(NC(C)C)s2)cn2ccnc12
4. CC(C)Nc1ncc(-c2cc(-c3ccc(F)c(Cl)c3)c3nncn3c2)s1

Outgoing:
1. 807
2. 37
3. 795
4. 604

* * *

For each of the compounds below, state its IC50.
Target: UniProt Q16539
Experiment: Inhibition of MAPK14 Kinase Activity
Answers are plain numbers, in nM.

compound	tgt	unitName	IC50
COC(=O)Cc1cn2cc(-c3cn[nH]c3)cc(-c3ccccc3)c2n1	UniProt Q16539	nM	924
CC[C@@H](C)Nc1ncc(-c2cc(-c3ccccc3C)c3nccn3c2)s1	UniProt Q16539	nM	5
Fc1ccccc1-c1nc(-c2cnc(NC3CCOCC3)s2)cn2ccnc12	UniProt Q16539	nM	109

Incoming: Which IC50 value belongs to CC(C)C(C)Nc1ncc(-c2cc(-c3ccccc3)c3nccn3c2)s1 (centres undefined) ?
Outgoing: 41.6
